Sourced from ChEMBL document CHEMBL1136358

# measuredTarget: Tyrosine-protein kinase Lck (Homo sapiens, UniProt P06239)
# Sequence (P06239 whole entry): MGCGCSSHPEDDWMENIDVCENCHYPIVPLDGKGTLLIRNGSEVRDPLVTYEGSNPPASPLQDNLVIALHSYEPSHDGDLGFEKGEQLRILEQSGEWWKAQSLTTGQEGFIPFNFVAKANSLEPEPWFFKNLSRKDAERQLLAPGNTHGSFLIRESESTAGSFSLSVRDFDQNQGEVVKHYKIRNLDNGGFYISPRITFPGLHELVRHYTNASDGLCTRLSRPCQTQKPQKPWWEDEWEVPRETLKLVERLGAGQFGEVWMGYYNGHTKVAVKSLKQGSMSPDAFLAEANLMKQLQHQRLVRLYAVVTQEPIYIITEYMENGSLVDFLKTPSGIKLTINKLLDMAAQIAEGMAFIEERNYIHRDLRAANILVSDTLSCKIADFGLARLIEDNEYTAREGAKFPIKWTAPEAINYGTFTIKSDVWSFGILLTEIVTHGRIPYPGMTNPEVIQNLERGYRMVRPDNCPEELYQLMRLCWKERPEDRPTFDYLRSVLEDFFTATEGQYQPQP
# assayComment: Inhibition of Lck kinase
measurementType: pIC50
// pIC50 here means minus log10 of the molar concentration (mol/L)

Provide only the value of recorded pIC50 for Cc1cccc(Cl)c1NC(=O)c1cnc(NC(=O)C2CC2)s1
7.46

----------
Hi there, I'd appreciate the recorded IC50 for every entry that follows.
# measuredTarget: Proto-oncogene tyrosine-protein kinase LCK (Mus musculus)
# Sequence (P06240 whole entry): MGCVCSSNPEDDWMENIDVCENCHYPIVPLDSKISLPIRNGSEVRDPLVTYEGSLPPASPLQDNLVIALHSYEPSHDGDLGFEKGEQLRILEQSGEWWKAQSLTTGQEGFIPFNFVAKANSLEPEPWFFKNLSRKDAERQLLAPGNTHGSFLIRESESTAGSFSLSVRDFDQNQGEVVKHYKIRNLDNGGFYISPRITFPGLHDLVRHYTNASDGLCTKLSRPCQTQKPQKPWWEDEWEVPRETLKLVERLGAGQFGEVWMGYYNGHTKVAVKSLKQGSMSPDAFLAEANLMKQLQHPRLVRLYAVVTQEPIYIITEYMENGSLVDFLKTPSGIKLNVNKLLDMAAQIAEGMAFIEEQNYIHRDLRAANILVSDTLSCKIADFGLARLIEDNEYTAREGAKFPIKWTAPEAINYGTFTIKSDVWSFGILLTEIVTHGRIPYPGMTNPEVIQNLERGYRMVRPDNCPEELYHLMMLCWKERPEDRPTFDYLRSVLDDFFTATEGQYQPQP
# assayComment: Inhibition of mouse p56 Lck tyrosine kinase
Please respond with the number in µM and leave the unit unwritten.

Provide only the value of recorded IC50 for Cc1cc(Br)cc(C)c1NC(=O)c1sc(NC(=O)OC(C)(C)C)nc1C
2.4

Provide only the value of recorded IC50 for Cc1cc(C)c(NC(=O)c2sc(N)nc2C)c(C)c1
6.6

Provide only the value of recorded IC50 for Cc1cccc(C)c1NC(=O)c1sc(NC(=O)OC(C)(C)C)nc1C
7.5

Provide only the value of recorded IC50 for Cc1cccc(Cl)c1NC(=O)c1sc(NC(=O)OC(C)(C)C)nc1C
9.6

Provide only the value of recorded IC50 for Cc1cc(C)c(NC(=O)c2sc(NC(=O)OC(C)(C)C)nc2C)c(C)c1
3
